# EXPERIMENT: Toxicokinetics of the 7-day tox study
# Type: in vivo, rats
# CONDITION SET: male, rat, whole blood, po, 100 mg/kg, Day 7, 100 mg/kg oral, Male
ENDPOINT: AUC

>>> result("CN1CCN(c2nc(NCCN3CCOCC3)c3nc(Cl)c(NCCN4CCOCC4)nc3n2)CC1")
"91200 ng·h/mL"

----------
# EXPERIMENT: PK/PD study: whole blood JB6121 after 7 days oral dosing
# Format: in vivo, Sprague-Dawley rats
# CONDITION SET: Sprague-Dawley, rat, whole blood; 1.56 mg/kg PO daily x7 days, Day 7, 3 h
# Protocol: The objective of this study was to collect serum following ODN CpG 1668 administration and to determine the pharmacokinetics of JB6121 following oral administration to Sprague-Dawley rats for 7 days. There was a pre-test to establish the appropriate agonist dose for a TLR9 ligand, CpG DNA ODN 1668, in rats using serum IL-12 as the monitored cytokine, groups 1-3, see table 6. […] Serum IL-12 was determined by ELISA, data not shown. […]
ENDPOINT: concentration at 3 h (ng/mL)

>>> result("CN1CCN(c2nc(NCCN3CCOCC3)c3nc(Cl)c(NCCN4CCOCC4)nc3n2)CC1")
8.2

All values here come from patent US20170275287A1.
